Origin of values: patent US9920089B2

assay: Particle size distribution by laser diffraction, dry powder method (Malvern Mastersizer 2000); assay type: physicochemical; details: milled dried product after spherical agglomeration
Reported endpoint: Measured Particle Size Distribution D(0.5) (μm)

Reference set (2 entries):
{"Compound": "CC(=O)O[C@H]1CC[C@@]2(C)C(=CC[C@@H]3[C@@H]2CC[C@]2(C)C(c4cccnc4)=CC[C@@H]32)C1 [Example 3, abiraterone acetate]", "Endpoint unit": "μm", "Result value": 3.7}
{"Compound": "CC(=O)O[C@H]1CC[C@@]2(C)C(=CC[C@@H]3[C@@H]2CC[C@]2(C)C(c4cccnc4)=CC[C@@H]32)C1 [Example 4, abiraterone acetate]", "Endpoint unit": "μm", "Result value": 6.5}

(a) CC(=O)O[C@H]1CC[C@@]2(C)C(=CC[C@@H]3[C@@H]2CC[C@]2(C)C(c4cccnc4)=CC[C@@H]32)C1 [Example 1, abiraterone acetate]
(b) CC(=O)O[C@H]1CC[C@@]2(C)C(=CC[C@@H]3[C@@H]2CC[C@]2(C)C(c4cccnc4)=CC[C@@H]32)C1 [Example 2, abiraterone acetate]
Pick one: a or b . Which has the bigger Measured Particle Size Distribution D(0.5) number? Lab note: record the label of whichever item you select.
b
(b: 10.7 μm, a: 4.9 μm)
